- PROCEDURE TEXT: Biodistribution of 177Lu-labeled αMSH analogues in mice bearing B16F10 mouse melanoma
- Format: in vivo, C57BL/6J mice
- REPORTED CONDITIONS: mouse, kidneys, iv, total radioactivity; 1 h p.i., C57BL/6J mice, B16F10 melanoma; read-out: Biodistribution, Kidneys
- Description: The B16-F10 mouse melanoma cells were cultured and inoculated in mice as described in Example 1. For biodistribution studies, approximately 1-2 MBq of ^177Lu-labeled αMSH analogues via tail vein under anesthesia. At 1, 4, 24, and 120 h p.i., the mice were euthanized by CO2 inhalation. Organs/tissues were harvested and the radioactivity was measured as described in Example 1.
MEASURED ATTRIBUTE: tissue uptake at 1 h (%ID/g)
Please give a number only; it is taken to be in %ID/g.

Task item: Query: tissue uptake at 1 h; subject: CCCC[C@H](NC(=O)CN1CCC(NC(=O)[C@H](CCCCNC(=O)CN2CCN(CC(=O)O)CCN(CC(=O)O)CCN(CC(=O)O)CC2)NC(=O)[C@H](CCC(=O)O)NC(=O)CCCc2ccc(I)cc2)CC1)C(=O)N[C@H]1CC(=O)NCCCC[C@@H](C(N)=O)N(C)C(=O)[C@H](Cc2c[nH]c3ccccc23)NC(=O)[C@H](CCCNC(=N)N)N(C)C(=O)[C@@H](Cc2ccccc2)NC(=O)[C@H](Cc2c[nH]cn2)NC1=O [^177Lu-labeled CCZ01118, metal not drawn]
Reply: 12

// provenance: patent US11395857B2
